These measurements were taken from ChEMBL document CHEMBL4138212.

Record form. Attribute: IC50. Fill in for each entry.
- protocol description: Cytotoxicity against human MRC5 SV2 cells assessed as decrease in cell viability after 72 hrs by resazurin dye-based fluorometric method
- measurement parameters: MRC-5 SV2, 72 h

[Q] For CC1CS(=O)(=O)CCN1/N=C/c1ccc([N+](=O)[O-])o1 (stereo not given) [NIFURTIMOX] , what is its reported IC50?
[A] > 64 µM

[Q] Reported IC50, compound CO[C@H]1O[C@@H]2O[C@@]3(C)CC[C@H]4[C@H](C)CC[C@@H]([C@H]1C)[C@@]24OO3 : ____
[A] > 64 µM

[Q] # lookup: IC50 of Nc1nc(N)nc(Nc2ccc([As]3SCC(CO)S3)cc2)n1 (stereo not given) [MELARSOPROL]
[A] 7.4 µM

[Q] Quick one: IC50 of O=C(Cn1ccnc1[N+](=O)[O-])NCc1ccccc1 [BENZNIDAZOLE] ?
[A] > 64 µM

[Q] I am curious: what IC50 value has been reported for CCN(CC)CCCC(C)Nc1ccnc2cc(Cl)ccc12 (stereo not given) [CHLOROQUINE] ?
[A] > 64 µM

----------
- System: Plasmodium falciparum
- protocol description: Antiplasmodial activity against chloroquine-resistant Plasmodium falciparum K1 infected in human O-positive erythrocytes assessed as decrease in parasitaemia after 72 hrs by NBT dye-based spectrophotometric method
- Type: functional, organism-based
- measurement parameters: K1, 72 h
recorded metric: pIC50
By convention, pIC50 is the negative base-10 log of a molar concentration.

[Q] Param item = CO[C@H]1O[C@@H]2O[C@@]3(C)CC[C@H]4[C@H](C)CC[C@@H]([C@H]1C)[C@@]24OO3 ; retrieve measured pIC50.
[A] 7.70
